Experiment: Solubility of the compound at pH 7
Type: physicochemical
Conditions: buffer
readout type: solubility

# compound O=C(Cn1c(=O)[nH]c2ncc(-c3cccc(C(F)(F)F)c3)cc21)NC1CC1 ; its solubility = < 4 µM

====

Experiment: Solubility of the compound at pH 2
Format: physicochemical
Details: buffer
readout type: solubility

# compound O=C(Cn1c(=O)[nH]c2ncc(-c3cccc(C(F)(F)F)c3)cc21)NC1CC1 ; its solubility = < 4 µM
